System: human SMAD7 mRNA
Assay: Dose-dependent inhibition of human SMAD7 mRNA expression in Hep3B cells (Example 3, Study 1 and 2)
Format: cell-based
Conditions: 20000.0 nM, electroporation, approximately 16 hours, Study 1
Strand notation (5' to 3'): a small letter for the sugar, then the base; units joined by * are phosphorothioate-linked, units joined directly phosphodiester-linked; [ ] holds rarer units or linkages, { } end groups; capitals alone tell only the bases. e = 2'-O-(2-methoxyethyl) (MOE); [5mC] = 5-methylcytosine; d = 2'-deoxy (DNA)
Reported % inhibition of SMAD7 mRNA expression values for the following substances.

substance: 771444 (eA*eG*e[5mC]*e[5mC]*eT*d[5mC]*dT*dT*dG*dA*d[5mC]*dT*dT*d[5mC]*d[5mC]*eG*eA*eG*eG*eA; antisense) [compound 771444]
unit_string: %
% inhibition of SMAD7 mRNA expression: 29
//
substance: 771441 (e[5mC]*eG*eA*eG*eG*dG*d[5mC]*dG*dG*d[5mC]*dT*dG*d[5mC]*dG*d[5mC]*eA*eG*eG*e[5mC]*eT; antisense) [compound 771441]
unit_string: %
% inhibition of SMAD7 mRNA expression: 64
//
substance: 771670 (antisense eA*eG*eT*e[5mC]*e[5mC]*dT*dT*dT*d[5mC]*dT*d[5mC]*dT*d[5mC]*dT*d[5mC]*eA*eA*eA*eG*e[5mC]) [compound 771670]
unit_string: %
% inhibition of SMAD7 mRNA expression: 47
//
substance: 771581 (antisense eG*eG*eG*eA*e[5mC]*d[5mC]*d[5mC]*d[5mC]*dA*dG*d[5mC]*d[5mC]*dG*d[5mC]*d[5mC]*eA*eG*e[5mC]*eT*eT) [compound 771581]
unit_string: %
% inhibition of SMAD7 mRNA expression: 65
//
substance: 771770 (antisense e[5mC]*eT*eG*eT*eT*dG*dG*d[5mC]*dA*dG*dT*dG*d[5mC]*dT*d[5mC]*e[5mC]*e[5mC]*eA*e[5mC]*e[5mC]) [compound 771770]
unit_string: %
% inhibition of SMAD7 mRNA expression: 51
//
substance: 771418 (e[5mC]*e[5mC]*eG*e[5mC]*e[5mC]*dA*d[5mC]*d[5mC]*dG*dG*d[5mC]*d[5mC]*d[5mC]*d[5mC]*dA*eT*eG*e[5mC]*eG*e[5mC]; antisense) [compound 771418]
unit_string: %
% inhibition of SMAD7 mRNA expression: 0
//
substance: 771552 (antisense e[5mC]*eT*eT*eG*eG*dA*dT*dT*dT*d[5mC]*dT*dG*d[5mC]*dT*dT*e[5mC]*e[5mC]*e[5mC]*e[5mC]*eT) [compound 771552]
unit_string: %
% inhibition of SMAD7 mRNA expression: 45
//
substance: 771509 (antisense eG*eG*e[5mC]*e[5mC]*eT*dG*d[5mC]*dT*d[5mC]*dA*dG*d[5mC]*dT*d[5mC]*dA*e[5mC]*eG*e[5mC]*eT*e[5mC]) [compound 771509]
unit_string: %
% inhibition of SMAD7 mRNA expression: 47
//
substance: 771850 (antisense eT*e[5mC]*e[5mC]*e[5mC]*eA*d[5mC]*dT*dT*d[5mC]*dT*d[5mC]*d[5mC]*dT*d[5mC]*dT*eG*eG*e[5mC]*eT*eG) [compound 771850]
unit_string: %
% inhibition of SMAD7 mRNA expression: 44
//
substance: 771762 (antisense eG*eT*e[5mC]*eA*e[5mC]*d[5mC]*dA*d[5mC]*d[5mC]*dG*dA*dT*dG*d[5mC]*dA*eT*e[5mC]*e[5mC]*eA*eA) [compound 771762]
unit_string: %
% inhibition of SMAD7 mRNA expression: 67
//
substance: 771786 (antisense eA*eG*e[5mC]*eT*e[5mC]*dA*dA*dA*d[5mC]*dT*dT*dT*dG*dA*dA*eG*e[5mC]*e[5mC]*eT*eT) [compound 771786]
unit_string: %
% inhibition of SMAD7 mRNA expression: 40
//
substance: 771556 (antisense e[5mC]*e[5mC]*e[5mC]*eT*eT*d[5mC]*dA*dT*dA*d[5mC]*dA*d[5mC]*dT*dG*dT*eG*eT*eT*eT*eG) [compound 771556]
unit_string: %
% inhibition of SMAD7 mRNA expression: 33
//
substance: 771836 (antisense eT*eG*eT*eT*eG*dA*dG*dG*dA*d[5mC]*dT*d[5mC]*d[5mC]*d[5mC]*d[5mC]*eA*eG*e[5mC]*e[5mC]*eA) [compound 771836]
unit_string: %
% inhibition of SMAD7 mRNA expression: 41
//
substance: 771387 (antisense eA*eG*e[5mC]*eA*eT*d[5mC]*dT*dG*dG*dA*d[5mC]*dA*dG*dT*d[5mC]*eT*eG*e[5mC]*eT*eG) [compound 771387]
unit_string: %
% inhibition of SMAD7 mRNA expression: 70
//
substance: 771821 (antisense eG*eT*eT*e[5mC]*e[5mC]*dT*dT*dA*dT*dA*dG*dA*dT*dT*dA*eT*e[5mC]*e[5mC]*eA*eA) [compound 771821]
unit_string: %
% inhibition of SMAD7 mRNA expression: 46
//
substance: 771711 (antisense e[5mC]*eG*e[5mC]*eA*e[5mC]*dT*dT*d[5mC]*dA*d[5mC]*dA*dG*dT*dT*d[5mC]*eA*e[5mC]*eA*eG*eG) [compound 771711]
unit_string: %
% inhibition of SMAD7 mRNA expression: 59
//
substance: 771820 (antisense eG*eG*eT*e[5mC]*eA*dA*dA*d[5mC]*dT*dT*dG*dT*dG*dG*dT*eA*eA*eA*eA*eT) [compound 771820]
unit_string: %
% inhibition of SMAD7 mRNA expression: 7
//
substance: 771793 (antisense eA*eA*eG*eT*e[5mC]*d[5mC]*d[5mC]*dT*dA*dA*d[5mC]*dG*dA*d[5mC]*d[5mC]*eA*eG*eG*e[5mC]*e[5mC]) [compound 771793]
unit_string: %
% inhibition of SMAD7 mRNA expression: 57
//
substance: 771732 (antisense eG*eT*e[5mC]*eA*eT*dG*dT*dG*dA*dA*d[5mC]*dA*d[5mC]*dT*d[5mC]*eT*eT*eT*e[5mC]*eA) [compound 771732]
unit_string: %
% inhibition of SMAD7 mRNA expression: 58
//
substance: 771788 (antisense e[5mC]*e[5mC]*eA*eA*e[5mC]*dT*d[5mC]*dT*dG*dA*dA*d[5mC]*dG*dG*dA*eA*eA*eG*eA*eA) [compound 771788]
unit_string: %
% inhibition of SMAD7 mRNA expression: 0
//
substance: 771574 (antisense e[5mC]*eG*e[5mC]*eT*eT*dG*dG*dG*dA*d[5mC]*dT*dG*d[5mC]*dA*dA*eA*e[5mC]*e[5mC]*eT*e[5mC]) [compound 771574]
unit_string: %
% inhibition of SMAD7 mRNA expression: 58

* * *

Assay: Oligonucleotide concentration in liver and colon by LC-MS/MS after subcutaneous administration in CD-1 mice (Example 6)
Format: in vivo
Settings: 50 mg/kg subcutaneously twice a week for 7 weeks, 48 hours after the last dose
Reported Oligonucleotide concentration, Colon values for the following substances.
reported_endpoint: Oligonucleotide concentration, Colon (μg/g tissue)

substance: 830025 (antisense TTTGTAAATCGAAAGC; 3-10-3 cEt gapmer, further chemistry not given here) [compound 830025]
reported_endpoint: Oligonucleotide concentration, Colon
obs_value: 39
--
substance: 798781 (CGTAAGATTCACAGCA; 3-10-3 cEt gapmer, further chemistry not given here) [compound 798781]
reported_endpoint: Oligonucleotide concentration, Colon
obs_value: 63
--
substance: 830037 (antisense CTATTGGCTGATCTGG; 3-10-3 cEt gapmer, further chemistry not given here) [compound 830037]
reported_endpoint: Oligonucleotide concentration, Colon
obs_value: 24

* * *

Experiment: Body and organ weights after subcutaneous administration in beagle dogs (Example 8)
Assay type: in vivo
Details: 30 mg/kg subcutaneous days 1, 3, 5, 8, 15, 22, 29, end of study
reported_endpoint: Liver weight (g)

substance: 830037 (antisense CTATTGGCTGATCTGG; 3-10-3 cEt gapmer, further chemistry not given here) [compound 830037]
unit_string: g
obs_value: 204.1

substance: 830121 (AGAATCAAGCCCTGGC; 3-10-3 cEt gapmer, further chemistry not given here) [compound 830121]
unit_string: g
obs_value: 202.0

substance: 829994 (GGAGGCAGGGCCGCGA; 3-10-3 cEt gapmer, further chemistry not given here) [compound 829994]
unit_string: g
obs_value: 250.0

substance: 830025 (antisense TTTGTAAATCGAAAGC; 3-10-3 cEt gapmer, further chemistry not given here) [compound 830025]
unit_string: g
obs_value: 250.3

substance: 790615 (CCAATGAGAATGCTTC; 3-10-3 cEt gapmer, further chemistry not given here) [compound 790615]
unit_string: g
obs_value: 253.7

substance: 798781 (CGTAAGATTCACAGCA; 3-10-3 cEt gapmer, further chemistry not given here) [compound 798781]
unit_string: g
obs_value: 242.9

Values compiled from patent US10517889B2.
